Values from ChEMBL document CHEMBL1124557

test system: Cavia porcellus; test: Inhibition of PAF-induced bronchoconstriction in guinea pig 2 hr after p.o. administration.; type: functional; details: po, read-out: ID50 (the source's name)
Experimental readout: ED50 (mg/kg)
Value expressed in mg/kg; do not type the unit.

>  <Compound>
Cc1nnc2n1-c1sc(CCC(=O)N3CCOCC3)cc1C(c1ccccc1Cl)=NC2 [APAFANT]

>  <Measured target>
Cavia porcellus

>  <ED50 / mg/kg>
1

$$$$
>  <Compound>
COc1ccc(C(=C/C=C/C(=O)NCCCCc2cccnc2)c2ccc(OC)c(OC)c2)cc1OC

>  <Measured target>
Cavia porcellus

>  <ED50 / mg/kg>
27

$$$$
>  <Compound>
O=C(/C=C/C=C(c1ccc(Cl)cc1)c1ccc(Cl)cc1)NCCCCc1cccnc1

>  <Measured target>
Cavia porcellus

>  <ED50 / mg/kg>
50

$$$$
>  <Compound>
COc1ccc(C(=C/C=C/C(=O)N[C@@H](CCCc2cccnc2)C2CC2)c2ccc(OC)cc2)cc1

>  <Measured target>
Cavia porcellus

>  <ED50 / mg/kg>
6

$$$$
>  <Compound>
COc1cccc(C(=C/C=C/C(=O)N[C@H](C)CCCc2cccnc2)c2cccc(OC)c2)c1

>  <Measured target>
Cavia porcellus

>  <ED50 / mg/kg>
29

$$$$

-- ask For the record "CCCCCCCC/C(=C\C=C\C(=O)N[C@H](C)CCCc1cccnc1)c1ccc(OC)cc1" , what value of ED50 is listed for Cavia porcellus?
-- reply 13

-- ask Item: "C[C@H](CCCc1cccnc1)NC(=O)/C=C/C=C(c1cccc(F)c1)c1cccc(F)c1" Test system: Cavia porcellus Read-out: ED50 Value: ?
-- reply 37

-- ask Find the measured ED50: item "COc1ccc(C(=C/C=C/C(=O)NC(C)(C)CCCc2cccnc2)c2ccc(OC)cc2)cc1" , target or system Cavia porcellus.
-- reply 55

-- ask Item "COc1ccc(C(=C/C=C/C(=O)N[C@@H](CCCc2cccnc2)C(C)C)c2ccc(OC)cc2)cc1" with Cavia porcellus - ED50?
-- reply 26

* * *

test system: Cavia porcellus; test: Ability to prevent PAF-induced bronchoconstriction in guinea pig when administered at a dose of 1 mg/kg intravenously; type: functional; settings: route intravenous
Experimental readout: inhibition in vivo at 1 mg/kg

Some solved cases for reference:
>  <Mol smiles>
CCCC/C(=C\C=C\C(=O)N[C@H](C)CCCc1cccnc1)c1ccc(OC)cc1

>  <Experimental readout>
inhibition in vivo at 1 mg/kg

>  <Reading>
99%

$$$$
>  <Mol smiles>
CC/C(=C\C=C\C(=O)N[C@H](C)CCCc1cccnc1)c1ccc(OC)cc1

>  <Experimental readout>
inhibition in vivo at 1 mg/kg

>  <Reading>
72%

$$$$
>  <Mol smiles>
COc1ccc(C(=C/C=C/C(=O)N[C@H](C)CCCc2cccnc2)c2ccc(OC)cc2)cc1

>  <Experimental readout>
inhibition in vivo at 1 mg/kg

>  <Reading>
98%

$$$$
>  <Mol smiles>
O=C(/C=C/C=C(c1ccc(Cl)cc1)c1ccc(Cl)cc1)NCCCCc1cccnc1

>  <Experimental readout>
inhibition in vivo at 1 mg/kg

>  <Reading>
95%

$$$$
>  <Mol smiles>
CC[C@H](CCCc1cccnc1)NC(=O)/C=C/C=C(c1ccc(OC)cc1)c1ccc(OC)cc1

>  <Experimental readout>
inhibition in vivo at 1 mg/kg

>  <Reading>
99%

$$$$

-- ask For "CCCCCCCC/C(=C\C=C\C(=O)N[C@H](C)CCCc1cccnc1)c1ccc(OC)cc1" , what is its reported inhibition in vivo at 1 mg/kg?
-- reply 98%

-- ask Entry under review: "C[C@@H](CCCc1cccnc1)NC(=O)/C=C/C=C(c1ccc(F)cc1)c1ccc(F)cc1" . Reported inhibition in vivo at 1 mg/kg?
-- reply 21%

-- ask Can you share its inhibition in vivo at 1 mg/kg? I mean this compound: "COc1ccc(C(=C/C=C/C(=O)Nc2ccc(-c3cccnc3)cc2)c2ccc(OC)cc2)cc1"
-- reply 97%

-- ask // inhibition in vivo at 1 mg/kg lookup, key: "C[C@H](CCCc1cccnc1)NC(=O)/C=C/C=C(c1cccc(F)c1)c1cccc(F)c1"
-- reply 73%

* * *

# inhibition listing for each entry below
molecular target: Platelet-activating factor receptor (Cavia porcellus); assay: Ability to prevent PAF-induced bronchoconstriction in guinea pig 2 hr after administration (50 mg/kg perorally); type: functional, organism-based
Give the value in % but do not write % after it.

Examples with their reported inhibition follow.
>  <Compound>
COc1cccc(C(=C/C=C/C(=O)NCCCCc2cccnc2)c2cccc(OC)c2)c1

>  <Experimental readout>
inhibition

>  <Units symbol>
%

>  <Reading>
31

$$$$
>  <Compound>
CC[C@H](CCCc1cccnc1)NC(=O)/C=C/C=C(c1ccc(OC)cc1)c1ccc(OC)cc1

>  <Experimental readout>
inhibition

>  <Units symbol>
%

>  <Reading>
99

$$$$
>  <Compound>
CCCCCC/C(=C\C=C\C(=O)N[C@H](C)CCCc1cccnc1)c1ccc(OC)cc1

>  <Experimental readout>
inhibition

>  <Units symbol>
%

>  <Reading>
96

$$$$

-- ask Given Cc1nnc2n1-c1sc(CCC(=O)N3CCOCC3)cc1C(c1ccccc1Cl)=NC2 [APAFANT] , state its recorded inhibition.
-- reply 100

-- ask Query (compound): "CCCCC/C(=C/C=C/C(=O)N[C@H](C)CCCc1cccnc1)c1ccc(OC)cc1" ; field requested: inhibition
-- reply 13

-- ask Item "COc1ccc(C(=C/C=C/C(=O)N[C@@H](CCCc2cccnc2)C2CC2)c2ccc(OC)cc2)cc1" has what recorded inhibition?
-- reply 99

-- ask Give its inhibition value. Item: "Cc1ccc(C(=C/C=C/C(=O)N[C@H](C)CCCc2cccnc2)c2ccc(C)cc2)cc1"
-- reply 91

-- ask Name the reported inhibition value associated with the compound "CCC/C(=C\C=C\C(=O)N[C@H](C)CCCc1cccnc1)c1ccc(OC)cc1"
-- reply 9

-- ask Name the reported inhibition value associated with the compound "CCCCCCCC/C(=C\C=C\C(=O)N[C@H](C)CCCc1cccnc1)c1ccc(OC)cc1"
-- reply 84

-- ask # get_value(readout='inhibition', item= "COc1ccc(C(=C/C=C/C(=O)N[C@@H](C)CCCc2cccnc2)c2ccc(OC)cc2)cc1" )
-- reply 90

-- ask Reported inhibition for "COc1ccc(C(=C/C=C/C(=O)NCCCCc2cccnc2)c2ccc(OC)c(OC)c2)cc1OC" : what is it?
-- reply 71

-- ask Data request, read-out inhibition, for "COc1ccc(C(=C/C=C/C(=O)N[C@@H](CCCc2cccnc2)C(C)C)c2ccc(OC)cc2)cc1"
-- reply 57

-- ask Looking for the measured inhibition of "CCCCC/C(=C\C=C\C(=O)N[C@H](C)CCCc1cccnc1)c1ccc(OC)cc1" , can you help?
-- reply 100

-- ask Please give the measured inhibition for this compound: "C[C@H](CCCc1cccnc1)NC(=O)/C=C/C=C(c1ccc(F)cc1)c1ccc(F)cc1"
-- reply 53

-- ask Please give the measured inhibition for this compound: "COc1ccc(/C(=C\C=C\C(=O)N[C@H](C)CCCc2cccnc2)c2ccccc2)cc1"
-- reply 0

-- ask # input compound: "O=C(C=C(c1ccccc1)c1ccccc1)NCCCCc1cccnc1" ; wanted: its inhibition
-- reply 28

* * *

biological target: Platelet-activating factor receptor (Cavia porcellus) (UniProt P21556); experiment: Ability to prevent PAF-induced bronchoconstriction in guinea pig 2 hr after administration (50 mg/kg perorally); assay type: functional, organism-based
Sequence (P21556 whole entry): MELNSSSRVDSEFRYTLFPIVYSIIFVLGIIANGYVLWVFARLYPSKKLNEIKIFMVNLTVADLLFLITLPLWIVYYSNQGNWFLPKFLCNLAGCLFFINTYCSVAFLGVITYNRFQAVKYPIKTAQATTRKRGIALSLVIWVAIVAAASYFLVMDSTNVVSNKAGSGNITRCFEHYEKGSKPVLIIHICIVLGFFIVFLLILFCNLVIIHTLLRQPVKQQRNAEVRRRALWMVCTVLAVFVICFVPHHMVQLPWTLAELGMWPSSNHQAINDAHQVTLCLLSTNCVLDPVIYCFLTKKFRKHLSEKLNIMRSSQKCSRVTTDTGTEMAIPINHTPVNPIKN
Decide using inhibition: a value greater than or equal to 50% is Met, a smaller one is Not met.

>  <Mol smiles>
COc1ccc(/C(=C/C=C/C(=O)N[C@H](C)CCCc2cccnc2)c2ccccc2)cc1

>  <Cat>
Met

$$$$

-- ask Entry "CCCCCC(=C/C=C/C(=O)N[C@H](C)CCCc1cccnc1)CCCCC" : is its inhibition no less than 50%?
-- reply Not met

-- ask Please indicate if the recorded inhibition for "O=C(/C=C/C=C(c1cccc(Cl)c1)c1cccc(Cl)c1)NCCCCc1cccnc1" meets or exceeds 50%.
-- reply Not met

-- ask Entry "COc1ccc(C(=C/C=C/C(=O)NC(C)(C)CCCc2cccnc2)c2ccc(OC)cc2)cc1" : is its inhibition no less than 50%?
-- reply Met

-- ask Given "COc1ccc(C(=C/C=C/C(=O)NCCCCc2cccnc2)c2ccc(OC)cc2)cc1" , state whether its inhibition is at least 50%.
-- reply Met

-- ask // inclusive: inhibition at least 50%? input: "COc1cccc(/C(=C\C=C\C(=O)NCCCCc2cccnc2)c2cccc(F)c2)c1"
-- reply Not met

-- ask Entry "C[C@H](CCCc1cccnc1)NC(=O)/C=C/C=C(c1cccc(F)c1)c1cccc(F)c1" : is its inhibition no less than 50%?
-- reply Met

-- ask Kindly determine if inhibition recorded for "COc1cccc(C(=C/C=C/C(=O)N[C@@H](C)CCCc2cccnc2)c2cccc(OC)c2)c1" is above or exactly 50%.
-- reply Not met

-- ask Could you verify whether the entry "Cc1ccc(C(=C/C=C/C(=O)NCCCCc2cccnc2)c2ccc(C)cc2)cc1" shows inhibition of no less than 50%?
-- reply Met
